target: SARS-CoV-2 PLpro-NAB (Severe acute respiratory syndrome coronavirus 2, UniProt P0DTD1); assay: biochemical; settings: read-out: HP PLpro-NAB IC50 [μM] duplicates 1 mM L-cys buffer; hit profiling; 1 mM L-cys buffer; listed as semapimod (EOS)

# Molecule, IC50
measured = [
    ("C/C(=N\\NC(=N)N)c1cc(NC(=O)CCCCCCCCC(=O)Nc2cc(/C(C)=N/NC(=N)N)cc(/C(C)=N/NC(=N)N)c2)cc(/C(C)=N/NC(=N)N)c1 [semapimod]", "> 20 µM"),
]

###

target: SARS-CoV-2 PLpro-NAB (Severe acute respiratory syndrome coronavirus 2, UniProt P0DTD1); assay: biochemical; conditions: read-out: HP PLpro-NAB IC50 [μM] triplicates 1 mM DTT buffer; hit profiling; 1 mM DTT buffer; listed as semapimod (EOS)
Measured endpoint: IC50 (µM)

# Molecule, Target under test, Reported
records = [
    ("C/C(=N\\NC(=N)N)c1cc(NC(=O)CCCCCCCCC(=O)Nc2cc(/C(C)=N/NC(=N)N)cc(/C(C)=N/NC(=N)N)c2)cc(/C(C)=N/NC(=N)N)c1 [semapimod]", "SARS-CoV-2 PLpro-NAB (Severe acute respiratory syndrome coronavirus 2, UniProt P0DTD1)", 1.21),
]
